# TEST_TARGET: RBDSARS-CoV (SARS-CoV S protein residues 318-510, C-terminal His-tag) (SARS-CoV, UniProt P59594 318-510)
# EXPERIMENT: ELISA
pIC50: −log10 of the molar value.
Catalogue of pIC50 values

// worked examples, pIC50 included
>  <BINDER>
R117 (VHH) VHH: HVQLVESGGGLVQAGGSLRLSCAAPGRTFSTSAMGWFRQAPGKEREFVAAIDWSNTNIHYADTVKGRFTISTDTAKNTVYLQMNNLKPEDTAVYYCAQGGWGLTQPISVDYWGKGTQVTVSS

>  <VALUE_MEASURED>
6.00 to 7.00

$$$$
>  <BINDER>
5p-38 (VHH, class II(B) psNb) VHH: QVQLVESGGGLVQAGGSLRLSCAAAARFSTSAMGWFRQAPGKEREFVAAISWSNTNTHYADTVKGRFTISADTAKETVDLQMNSLKPEDTAVYYCVQGGWGIRQPIIVDYWGKGTQVTVSS

>  <VALUE_MEASURED>
> 8.00

$$$$
>  <BINDER>
5p-68 (VHH) VHH: QVQLVESGGGLVQAGGSLRLSCVASGRTFSTSHMGWFRQAPGKEREFVAVISRSGSSTLDADSVKGRFTISRDNAKNTVYLQMNSLKPEDTAVYYCAGSRTAGLTSNRFLYDSWGQGTQVTVSS

>  <VALUE_MEASURED>
7.00 to 8.00

$$$$
>  <BINDER>
5p-169 (VHH) VHH: DVQLVESGGGLVQAGGSLRLSCLVSGLTFSTYGMGWFRQAPGKEREFVAQITRSGSPTLYADSVKGRFTISRDNAKNTMYLQMNSLKIEDTAVYYCAVRRDSSWGYSRDSFEYDYWGQGTQVTVSS

>  <VALUE_MEASURED>
> 8.00

$$$$

Turning now to a further binder:
In: Param item = 4P-89 (VHH) VHH: HVQLVESGGGLVQAGGSLRLSCAASGRTLTTYSMAWFRQAPGKEREVVAAITPTGFGTYYADFVKGRFTISRNSAKNTVYLQMDSLKPEDTAVYYCAARSEIIIASPTGGEYDYWGQGTQVTVSS ; retrieve measured pIC50.
Out: 7.00 to 8.00
